Cited source for all entries: patent US20130252951A1

molecular target: human CCR2 (Homo sapiens, UniProt P41597); experiment: CCR2 functional calcium assay (FLIPR calcium flux, hMCP-1 challenge); format: cell-based; design: expressed in transfected cells; host or cells: HEK293 EBNA cells; details: HEK293 EBNA cells transfected with human CCR2, hMCP-1 challenge; read-out: Functional CCR2 fKi
Sequence (P41597 whole entry): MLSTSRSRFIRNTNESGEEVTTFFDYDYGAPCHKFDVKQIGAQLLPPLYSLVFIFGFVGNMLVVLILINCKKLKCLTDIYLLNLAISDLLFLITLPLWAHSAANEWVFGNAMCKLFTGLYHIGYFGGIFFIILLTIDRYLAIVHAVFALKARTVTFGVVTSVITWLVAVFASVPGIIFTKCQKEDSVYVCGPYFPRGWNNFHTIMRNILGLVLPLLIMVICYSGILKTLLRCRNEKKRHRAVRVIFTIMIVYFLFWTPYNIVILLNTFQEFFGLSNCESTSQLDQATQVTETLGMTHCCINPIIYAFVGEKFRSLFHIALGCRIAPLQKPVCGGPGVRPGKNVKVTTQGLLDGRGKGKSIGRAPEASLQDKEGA
pKi: −log10 of the molar value.
RESULT_TYPE: pKi

Example entries and their recorded answers appear below.
                                   molecule  readout_value
0  Cc1nc2ccnn2c(O)c1Sc1cccc(F)c1 [Example 77]   6.00 to 7.00
1  Oc1c(Cc2cccc(Cl)c2)c(C2CCC2)nc2ccnn12 [Example 43]         > 8.00
2  Cc1nc2c(C(=O)NC[C@@H]3CCCO3)cnn2c(O)c1Cc1ccc(Cl)cc1 (stereo in doubt) [Example 110]   6.00 to 7.00
3  COC(=O)c1nc2ccnn2c(O)c1Oc1ccc(Cl)c(Cl)c1 [Example 89]         > 8.00

Next item in the queue.
Request body: readout pKi, system human CCR2 (Homo sapiens, UniProt P41597), query CCN(c1cccc(F)c1)c1c(C)nc2ccnn2c1O [Example 79] . Return the value.
6.00 to 7.00
